Study system: Serine/threonine-protein kinase NLK (Homo sapiens, UniProt Q9UBE8); note: in the data inactive means no Kd found up to 30 µM
Sequence (Q9UBE8 whole entry): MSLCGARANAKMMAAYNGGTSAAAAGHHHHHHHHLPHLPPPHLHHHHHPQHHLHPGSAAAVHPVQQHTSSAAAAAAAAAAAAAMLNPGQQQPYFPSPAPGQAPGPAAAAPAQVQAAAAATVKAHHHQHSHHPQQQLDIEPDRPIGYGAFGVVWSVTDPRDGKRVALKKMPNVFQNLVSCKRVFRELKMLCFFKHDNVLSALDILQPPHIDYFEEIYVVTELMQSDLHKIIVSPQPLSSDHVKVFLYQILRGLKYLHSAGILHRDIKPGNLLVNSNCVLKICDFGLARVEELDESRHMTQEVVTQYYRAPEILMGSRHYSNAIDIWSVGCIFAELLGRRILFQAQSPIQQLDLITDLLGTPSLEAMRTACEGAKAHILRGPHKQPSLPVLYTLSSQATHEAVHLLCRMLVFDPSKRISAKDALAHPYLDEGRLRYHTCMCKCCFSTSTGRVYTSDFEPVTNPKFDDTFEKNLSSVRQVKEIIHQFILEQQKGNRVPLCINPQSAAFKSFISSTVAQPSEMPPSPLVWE
Calls of active or inactive are those of the source.
Return exactly one item of 1 (yes) (active), 0 (no) (inactive)

Worked cases, answers included:
C[C@@H](NC(=O)c1ncnc(N)c1Cl)c1ncc(C(=O)Nc2cc(C(F)(F)F)c(Cl)cn2)s1
0 (no)
NC1(c2ccc(-c3nc4ccn5c(=O)[nH]nc5c4cc3-c3ccccc3)cc2)CCC1
0 (no)
COc1cc2ncnc(Oc3cccc(NC(=O)Nc4cc(C(C)(C)C(F)(F)F)on4)c3)c2cc1OC
0 (no)
C=CC(=O)Nc1cc2c(Nc3ccc(F)c(Cl)c3)ncnc2cc1C#CC(C)(C)N1CCN(C)CC1 [AV-412 FREE BASE]
0 (no)
C#Cc1cccc(Nc2ncnc3cc(OC)c(OCCCCCCC(=O)NO)cc23)c1
0 (no)
Cc1nc2cc(-c3nn(C(C)C)c4ncnc(N)c34)ccc2o1
1 (yes)
Cn1cc(-c2cnc3ccc4ccc(CS(=O)(=O)NCc5ccccn5)cc4c(=O)c3c2)cn1
0 (no)
Cc1cc(Nc2ncnc3ccc(NC4=NC(C)(C)CO4)cc23)ccc1Oc1ccn2ncnc2c1
0 (no)
Cc1cnc(NC(=O)Nc2cc(Br)c(C)cc2OC[C@@H]2CNCCO2)cn1
0 (no)
N#CC1(c2ccc(NC(=O)c3cccnc3NCc3ccncc3)cc2)CCCC1
0 (no)

*Q* Test call, this compound: O=C(Cc1ccc(-c2ccc(OCCN3CCOCC3)cc2)cn1)NCc1ccccc1
*A* 0 (no)
